# TARGET_UNDER_TEST: parietal cell H^+ K^+ ATPase (Oryctolagus cuniculus)
# Construct: determined in fundic mucosa from New Zealand white rabbits which were homogenized; from tissue; host or cells: fundic mucosa of New Zealand white rabbits, homogenized; membrane protein
# Sequence (P27112 2-1035 limits assumed): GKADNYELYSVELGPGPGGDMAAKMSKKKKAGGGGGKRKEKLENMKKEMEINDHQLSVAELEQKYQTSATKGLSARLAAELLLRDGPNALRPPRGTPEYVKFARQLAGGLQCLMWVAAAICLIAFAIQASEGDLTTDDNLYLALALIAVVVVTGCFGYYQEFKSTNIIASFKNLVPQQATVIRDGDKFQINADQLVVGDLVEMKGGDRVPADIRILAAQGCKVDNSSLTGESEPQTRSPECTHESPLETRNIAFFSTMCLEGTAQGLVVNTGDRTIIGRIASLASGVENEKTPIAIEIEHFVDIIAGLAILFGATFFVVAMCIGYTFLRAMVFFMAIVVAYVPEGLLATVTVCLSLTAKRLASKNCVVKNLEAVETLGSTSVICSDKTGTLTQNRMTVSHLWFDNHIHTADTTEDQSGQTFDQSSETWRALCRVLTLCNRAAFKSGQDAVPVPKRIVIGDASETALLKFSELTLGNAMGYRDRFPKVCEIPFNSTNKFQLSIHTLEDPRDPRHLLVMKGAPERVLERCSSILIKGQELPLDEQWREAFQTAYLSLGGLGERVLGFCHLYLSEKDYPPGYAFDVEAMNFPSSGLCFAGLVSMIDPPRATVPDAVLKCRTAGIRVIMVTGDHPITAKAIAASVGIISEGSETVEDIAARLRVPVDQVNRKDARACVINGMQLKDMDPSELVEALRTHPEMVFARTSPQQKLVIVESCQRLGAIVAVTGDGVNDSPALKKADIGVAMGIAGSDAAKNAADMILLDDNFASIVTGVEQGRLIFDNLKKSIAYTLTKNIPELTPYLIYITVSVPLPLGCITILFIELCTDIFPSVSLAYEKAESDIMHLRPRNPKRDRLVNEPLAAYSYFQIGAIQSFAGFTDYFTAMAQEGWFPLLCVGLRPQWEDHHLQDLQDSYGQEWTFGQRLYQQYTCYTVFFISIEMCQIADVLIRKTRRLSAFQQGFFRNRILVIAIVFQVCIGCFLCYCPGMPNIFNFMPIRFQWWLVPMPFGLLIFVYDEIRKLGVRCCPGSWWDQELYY
# Sequence (P18597 whole entry partner): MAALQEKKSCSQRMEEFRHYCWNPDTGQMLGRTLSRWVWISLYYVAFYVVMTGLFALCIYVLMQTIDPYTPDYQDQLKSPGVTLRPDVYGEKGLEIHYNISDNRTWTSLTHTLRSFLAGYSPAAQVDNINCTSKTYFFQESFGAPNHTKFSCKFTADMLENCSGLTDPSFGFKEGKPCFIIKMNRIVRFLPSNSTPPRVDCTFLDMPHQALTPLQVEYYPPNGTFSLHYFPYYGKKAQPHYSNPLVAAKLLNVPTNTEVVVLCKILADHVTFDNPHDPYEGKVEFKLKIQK
# PROTOCOL_TEXT: Inhibition of parietal cell H+ K+ ATPase
# Assay type: biochemical, New Zealand white rabbits
# ASSAY_CONTEXT: Example 49; given as "50% @ x μM"; read-out: % Inhibition at Concentration (H+ K+ ATPase): concentration given for 50% inhibition
ASSAY_METRIC: IC50 (µM)
Give bare numbers, in µM.

| COMPOUND | ASSAY_METRIC | UNIT_LABEL | OBSERVED_VALUE |
| --- | --- | --- | --- |
| C(=C\c1nc2ccccc2o1)/c1cccc(OCCCCn2ccnc2)c1 | IC50 | µM | 13 |
| CCCN(CCC)CCCCOc1ccc(/C=C/c2nc3ccccc3o2)cc1Cl | IC50 | µM | 17.5 |
| C(=C\c1nc2ccccc2o1)/c1ccc(OCCCn2ccnc2)cc1 | IC50 | µM | 64 |

Moving on to another compound below.
Using the record for C(=C\c1nc2ccccc2o1)/c1ccc(OCCCCN2CCCC2)cc1 , state its measured IC50.
84

###

# TARGET_UNDER_TEST: parietal cell H^+ K^+ ATPase (Oryctolagus cuniculus)
# Construct: determined in fundic mucosa from New Zealand white rabbits which were homogenized; from tissue; host or cells: fundic mucosa of New Zealand white rabbits, homogenized; membrane protein
# PROTOCOL_TEXT: Inhibition of parietal cell H+ K+ ATPase
# Assay type: biochemical, New Zealand white rabbits
# ASSAY_CONTEXT: Example 49; given as "50% @ x μM"; read-out: % Inhibition at Concentration (H+ K+ ATPase): concentration given for 50% inhibition
ASSAY_METRIC: IC50 (µM)
Numbers only, in µM.

# count of solved cases: 3
| COMPOUND | IC50, µM |
| --- | --- |
| CCCCN(CCCC)CCCOc1ccc(/C=C/c2nc3cc(C)ccc3o2)cc1 | 27 |
| CCCN(CCC)CCCCOc1cccc(/C=C/c2nc3ccccc3s2)c1 | 19 |
| C(=C\c1nc2ccccc2s1)/c1cccc(OCCCCn2ccnc2)c1 | 4.7 |

Parameter requested: IC50. Apply to each item below.
1. C(=C\c1nc2ccccc2o1)/c1ccc(OCCCCN2CCCCC2)cc1
2. CCCCN(CCCC)CCCOc1ccc(-c2nc3ccccc3s2)cc1
3. C(=C\c1nc2ccccc2o1)/c1cccc(OCCCn2ccnc2)c1
4. CCCN(CCC)CCCCOc1ccc(/C=C/c2nc3ccccc3o2)cc1
5. CCCN(CCC)CCCOc1c(C)cc(/C=C/c2nc3ccccc3o2)cc1C
6. C(=C\c1nc2ccccc2o1)/c1ccc(OCCCCCn2ccnc2)cc1
7. CCN(CC)CCCCOc1ccc(/C=C/c2nc3ccccc3o2)cc1

1: 40; 2: 18; 3: 10; 4: 21; 5: 15; 6: 13; 7: 74

Parameter requested: IC50. Apply to each item below.
1. CCCCN(CCCC)CCCCOc1ccc(/C=C/c2nc3ccccc3o2)cc1
2. C(=C\c1nc2ccccc2o1)/c1ccc(OCCCCn2ccnc2)cc1
3. CCCN(CCC)CCCCOc1cccc(/C=C/c2nc3ccccc3o2)c1
4. CCCCN(CCCC)CCCOc1ccc(/C=C/c2nc3ccc(OC)cc3s2)cc1
5. CCN(CC)CCCCOc1ccc(/C=C/c2nc3ccccc3s2)cc1

1. 20
2. 30
3. 14
4. 60
5. 44
